- TESTED_ON: T1, hASIC1a-mCherry fusion on a stable cell line (human, UniProt P78348 1-528)
- T1 sequence (looked up): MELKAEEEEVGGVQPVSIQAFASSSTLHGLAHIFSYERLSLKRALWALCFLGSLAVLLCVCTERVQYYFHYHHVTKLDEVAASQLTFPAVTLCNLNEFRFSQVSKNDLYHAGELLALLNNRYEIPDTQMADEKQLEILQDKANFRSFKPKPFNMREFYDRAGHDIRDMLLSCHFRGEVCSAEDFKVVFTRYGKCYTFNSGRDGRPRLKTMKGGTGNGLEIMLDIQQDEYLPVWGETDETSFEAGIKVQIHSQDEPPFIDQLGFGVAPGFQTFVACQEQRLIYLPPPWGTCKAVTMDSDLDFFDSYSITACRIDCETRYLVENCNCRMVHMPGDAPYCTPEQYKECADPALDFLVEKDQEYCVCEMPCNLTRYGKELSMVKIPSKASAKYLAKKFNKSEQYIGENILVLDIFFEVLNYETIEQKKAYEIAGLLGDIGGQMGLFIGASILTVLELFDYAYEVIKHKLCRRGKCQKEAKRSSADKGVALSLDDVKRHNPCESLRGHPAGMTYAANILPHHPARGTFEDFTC
- EXPERIMENTAL_PROTOCOL: cell-based or functional assay
ASSAY_ENDPOINT: IC50 for the inhibition of acid induced ASIC1a-mediated calcium influx, FLIPR-based assay (nM)
Expressed in nM, but write only the number.

Here is how some binders turned out for IC50 for the inhibition of acid induced ASIC1a-mediated calcium influx, FLIPR-based assay.
ASC06-IgG1 (antibody, V domains shown, Tested as full length IgG1; also called WT antibody ASC06-IgG1; parental ASC06-IgG1 antibody) VH: QVQLQQSGGGLVQPGGSLRLSCAASGFTFSSYAMSWVRQAPGKGLEWVSAISGSGGSTYYADSVKGRFTISRDNSKNTLYLQMNSLRAEDTAVYYCAKDSFYGYSKGDWGQGTLVTVSS VL: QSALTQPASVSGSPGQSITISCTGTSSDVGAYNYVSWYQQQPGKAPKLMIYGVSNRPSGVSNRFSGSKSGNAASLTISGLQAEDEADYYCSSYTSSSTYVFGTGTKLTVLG: 2.11
ASC06-02-IgG1 (antibody, V domains shown, Full length IgG1) VH: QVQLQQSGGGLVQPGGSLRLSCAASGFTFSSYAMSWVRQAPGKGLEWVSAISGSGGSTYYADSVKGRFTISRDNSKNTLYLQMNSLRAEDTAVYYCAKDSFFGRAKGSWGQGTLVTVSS VL: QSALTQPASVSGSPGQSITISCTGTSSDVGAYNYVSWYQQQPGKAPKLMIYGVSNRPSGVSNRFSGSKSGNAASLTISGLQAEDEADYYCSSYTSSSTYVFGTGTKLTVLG: 1.97
ASC06-01-IgG1 (antibody, V domains shown, Full length IgG1) VH: QVQLQQSGGGLVQPGGSLRLSCAASGFTFSSYAMSWVRQAPGKGLEWVSAISGSGGSTYYADSVKGRFTISRDNSKNTLYLQMNSLRAEDTAVYYCAKDSYFGYSKGDWGQGTLVTVSS VL: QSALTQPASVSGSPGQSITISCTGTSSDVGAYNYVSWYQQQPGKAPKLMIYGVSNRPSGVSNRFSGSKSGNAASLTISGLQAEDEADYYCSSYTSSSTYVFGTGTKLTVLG: 2.24

Switching to the query record.
Data request: Consider the binder shown here: ASC06-03-IgG1 (antibody, V domains shown, Full length IgG1) VH: QVQLQQSGGGLVQPGGSLRLSCAASGFTFSSYAMSWVRQAPGKGLEWVSAISGSGGSTYYADSVKGRFTISRDNSKNTLYLQMNSLRAEDTAVYYCAKDSFYGRAKGSWGQGTLVTVSS VL: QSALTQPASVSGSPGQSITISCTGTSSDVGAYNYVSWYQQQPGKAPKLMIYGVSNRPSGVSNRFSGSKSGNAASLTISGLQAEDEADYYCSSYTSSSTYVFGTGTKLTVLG What is its recorded IC50 for the inhibition of acid induced ASIC1a-mediated calcium influx, FLIPR-based assay?
Data returned: 2.61
